Numbers sourced from patent US20260092073A1.

Target desc: human P-gp (Homo sapiens)
Construct: expressed in transfected cells; host or cells: LLC-PK1 (porcine kidney epithelial cells)
Sequence (P08183 whole entry): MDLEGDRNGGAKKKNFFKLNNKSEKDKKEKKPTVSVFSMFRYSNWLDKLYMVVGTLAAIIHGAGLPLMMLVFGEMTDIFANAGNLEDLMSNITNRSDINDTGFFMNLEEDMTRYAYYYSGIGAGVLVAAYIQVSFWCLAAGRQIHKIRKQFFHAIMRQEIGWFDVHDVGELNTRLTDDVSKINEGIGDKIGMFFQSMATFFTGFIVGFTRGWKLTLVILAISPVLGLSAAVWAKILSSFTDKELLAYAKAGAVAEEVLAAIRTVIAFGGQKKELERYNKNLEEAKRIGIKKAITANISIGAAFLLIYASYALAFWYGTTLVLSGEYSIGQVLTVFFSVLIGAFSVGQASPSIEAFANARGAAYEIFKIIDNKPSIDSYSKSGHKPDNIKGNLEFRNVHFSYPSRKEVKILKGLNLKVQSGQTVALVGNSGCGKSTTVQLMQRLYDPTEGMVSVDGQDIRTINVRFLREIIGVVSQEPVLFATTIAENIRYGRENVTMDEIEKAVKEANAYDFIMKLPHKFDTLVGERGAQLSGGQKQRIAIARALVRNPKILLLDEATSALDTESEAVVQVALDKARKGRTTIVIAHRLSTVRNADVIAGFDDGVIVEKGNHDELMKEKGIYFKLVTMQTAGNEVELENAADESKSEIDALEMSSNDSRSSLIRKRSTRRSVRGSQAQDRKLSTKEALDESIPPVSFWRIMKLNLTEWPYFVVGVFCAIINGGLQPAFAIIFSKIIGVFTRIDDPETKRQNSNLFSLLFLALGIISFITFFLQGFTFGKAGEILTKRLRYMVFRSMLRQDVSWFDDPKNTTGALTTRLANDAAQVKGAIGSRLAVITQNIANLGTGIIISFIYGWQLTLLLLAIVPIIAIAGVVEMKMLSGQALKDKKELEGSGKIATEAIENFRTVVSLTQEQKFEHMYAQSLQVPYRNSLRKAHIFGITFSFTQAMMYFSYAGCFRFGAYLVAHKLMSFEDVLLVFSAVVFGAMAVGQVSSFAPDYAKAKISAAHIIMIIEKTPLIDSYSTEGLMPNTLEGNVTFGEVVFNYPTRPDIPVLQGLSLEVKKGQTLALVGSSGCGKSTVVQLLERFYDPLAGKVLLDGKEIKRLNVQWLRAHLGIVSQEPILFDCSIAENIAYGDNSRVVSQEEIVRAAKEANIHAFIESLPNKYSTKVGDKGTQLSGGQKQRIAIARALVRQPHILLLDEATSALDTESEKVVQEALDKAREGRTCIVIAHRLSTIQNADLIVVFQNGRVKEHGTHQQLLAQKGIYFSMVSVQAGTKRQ
Assay info: Transcellular human P-gp assay (transfected LLC-PK1 cells)
Type: in vitro ADME
Condition details: LLC-PK1 cells over-expressing human P-gp; read-out: Permeability
Readout kind: Papp (×10⁻⁶ cm/s)

compound="Cc1cc2c(c(O)c1-c1ccc3oc(N[C@@H]4CCCN(CCO)C4)nc3n1)CCO2 [Example 14]" readout_kind=Papp observed_value=13.5

* * *

Target desc: NLRP3 (Homo sapiens, UniProt Q96P20)
Sequence (Q96P20 whole entry): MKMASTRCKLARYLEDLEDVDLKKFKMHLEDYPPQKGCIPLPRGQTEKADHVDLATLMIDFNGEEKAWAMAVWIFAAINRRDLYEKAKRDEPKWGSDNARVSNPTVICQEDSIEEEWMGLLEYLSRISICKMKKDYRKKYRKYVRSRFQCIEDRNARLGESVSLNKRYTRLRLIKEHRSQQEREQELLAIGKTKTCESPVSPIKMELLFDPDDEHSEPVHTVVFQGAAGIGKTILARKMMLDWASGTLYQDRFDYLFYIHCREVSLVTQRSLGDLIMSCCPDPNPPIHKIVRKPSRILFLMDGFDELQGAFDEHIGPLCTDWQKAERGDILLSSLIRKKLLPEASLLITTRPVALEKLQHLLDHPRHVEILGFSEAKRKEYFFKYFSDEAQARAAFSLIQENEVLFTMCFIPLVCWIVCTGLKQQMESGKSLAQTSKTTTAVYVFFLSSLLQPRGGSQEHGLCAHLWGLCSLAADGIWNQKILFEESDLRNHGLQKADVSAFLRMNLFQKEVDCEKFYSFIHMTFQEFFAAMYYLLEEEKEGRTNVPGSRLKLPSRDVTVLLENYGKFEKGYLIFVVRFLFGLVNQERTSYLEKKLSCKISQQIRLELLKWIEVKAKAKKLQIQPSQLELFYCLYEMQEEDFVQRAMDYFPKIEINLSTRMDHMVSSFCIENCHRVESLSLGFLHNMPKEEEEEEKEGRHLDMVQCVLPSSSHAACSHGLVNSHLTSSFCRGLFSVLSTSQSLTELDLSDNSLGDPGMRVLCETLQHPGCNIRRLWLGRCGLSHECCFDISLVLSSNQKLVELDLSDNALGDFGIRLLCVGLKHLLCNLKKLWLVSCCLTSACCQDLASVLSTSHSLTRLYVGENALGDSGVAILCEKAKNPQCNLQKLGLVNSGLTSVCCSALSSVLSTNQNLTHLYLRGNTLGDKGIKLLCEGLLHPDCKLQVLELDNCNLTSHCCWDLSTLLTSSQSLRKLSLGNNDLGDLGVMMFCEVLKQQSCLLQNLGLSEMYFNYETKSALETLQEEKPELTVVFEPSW
Assay info: Human whole blood IL-1β release assay
Format: cell-based
Parameters: Human whole blood in Li-heparin tubes was obtained from healthy donors; from tissue; host or cells: human whole blood from healthy donors
Condition details: LPS, nigericin 10 μM, IL-1β by AlphaLisa
Values of IC50 strictly less than 50 nM map to Condition met, and values of at least 50 nM map to Condition not met.

structure_smiles=COCc1cc(C#N)cc(O)c1-c1ccc2oc(N[C@@H]3CCCN(CCO)C3)nc2n1 target_desc="NLRP3 (Homo sapiens, UniProt Q96P20)" classification="Condition met"
structure_smiles=Cc1cc(C(F)(F)F)cc(O)c1-c1ccc2oc(N[C@@H]3C[C@H](O)CN(CCCC(=O)O)C3)nc2n1 target_desc="NLRP3 (Homo sapiens, UniProt Q96P20)" classification="Condition not met"
structure_smiles=Cc1cc(C#N)cc(O)c1-c1cc(F)c2oc(N[C@@H]3CCCN(CCO)C3)nc2n1 target_desc="NLRP3 (Homo sapiens, UniProt Q96P20)" classification="Condition not met"
structure_smiles=CCN1C[C@@H](O)C[C@@H](Nc2nc3nc(-c4c(C)cc(C#N)cc4O)cc(F)c3o2)C1 target_desc="NLRP3 (Homo sapiens, UniProt Q96P20)" classification="Condition not met"
structure_smiles=Cc1cc2c(c(O)c1-c1cnc3oc(N[C@@H]4C[C@H](O)CN(CCO)C4)nc3n1)CCO2 target_desc="NLRP3 (Homo sapiens, UniProt Q96P20)" classification="Condition not met"
structure_smiles=COc1cc(-c2c(C)cc3c(c2O)CCO3)nc2nc(N[C@@H]3CCCN(CCO)C3)oc12 target_desc="NLRP3 (Homo sapiens, UniProt Q96P20)" classification="Condition met"
structure_smiles=Cc1cc2c(c(O)c1-c1ccc3oc(N[C@@H]4CCCN(CCO)C4)nc3n1)CCO2 target_desc="NLRP3 (Homo sapiens, UniProt Q96P20)" classification="Condition met"
structure_smiles=COCc1cc(C#N)cc(O)c1-c1cnc2oc(N[C@@H]3CCCN(CCO)C3)nc2n1 target_desc="NLRP3 (Homo sapiens, UniProt Q96P20)" classification="Condition met"

* * *

Target desc: NLRP3 (Homo sapiens, UniProt Q96P20)
Assay info: Human whole blood IL-1β release assay
Format: cell-based
Design: Human whole blood in Li-heparin tubes was obtained from healthy donors; from tissue; host or cells: human whole blood from healthy donors
Condition details: LPS, nigericin 10 μM, IL-1β by AlphaLisa
Protocol: For systemic delivery, the ability to inhibit NLRP3 when the compounds are present within the bloodstream is of great importance. […] At the end of the incubation period, spin plates at 300 xg for 5 mins to pellet cells and remove 20 μl of supernatant and add to 96-well v-bottom plates for IL-1β analysis (note: these plates containing the supernatants can be stored at −80° C. to be analysed at a later date) […]
Threshold 50 nM: IC50 strictly smaller gives 1.0, otherwise 0.0.

compound="Cc1cc(C#N)cc(O)c1-c1ccc2oc(N[C@@H]3CCCN(CCCc4ncco4)C3)nc2n1 [Example 28]" classification=0.0
compound="Cc1cc(C(F)(F)F)cc(O)c1-c1ccc2oc(N[C@@H]3C[C@H](O)CN(CCO)C3)nc2n1 [Example 6]" classification=0.0
compound="CCN1C[C@@H](O)C[C@@H](Nc2nc3nc(-c4c(C)cc(C#N)cc4O)cnc3o2)C1 [Example 2]" classification=1.0
compound="Cc1cc(C#N)cc(O)c1-c1cnc2oc(N[C@@H]3C[C@H](O)CN(C)C3)nc2n1 [Example 7]" classification=1.0
compound="Cc1cc(C#N)cc(O)c1-c1ccc2oc(N[C@H]3CNC[C@@H](O)C3)nc2n1 [Example 9]" classification=0.0
compound="CCN1C[C@@H](O)C[C@@H](Nc2nc3nc(-c4c(C)cc5c(c4O)CCO5)cnc3o2)C1 [Example 25]" classification=1.0
compound="COCc1cc(C#N)cc(O)c1-c1cc(OC)c2oc(N[C@@H]3CCCN(CCO)C3)nc2n1 [Example 20]" classification=0.0
compound="CCN1C[C@@H](O)C[C@@H](Nc2nc3nc(-c4c(C)cc(C#N)cc4O)cc(OC)c3o2)C1 [Example 30]" classification=1.0
compound="Cc1cc(C#N)cc(O)c1-c1ccc2oc(N[C@@H]3CCCN(CCc4ncco4)C3)nc2n1 [Example 4]" classification=0.0
compound="Cc1cc(C#N)cc(O)c1-c1cnc2oc(N[C@@H]3CCCN(CCO)C3)nc2n1 [Example 10]" classification=1.0
